Assign IC50 to each entry below.
Target: full length active recombinant SYK enzyme (Homo sapiens)
Construct: full length active recombinant SYK enzyme (Millipore, Calif.)
Test: Inhibition of Syk tyrosine phosphorylation activity (LANCE TR-FRET kinase assay)
Conditions: 1 nM active SYK enzyme, 550 nM SYK-substrate, 100 μM ATP, 1 hour at room temperature

Record summary for NC(=O)c1nnc(N[C@@H]2CCCC[C@@H]2N)nc1Nc1ccc2c(ccc[n+]2[O-])c1 : reported IC50 = 10 to 100 nM

Record summary for Cc1cc(Nc2nc(N[C@@H]3CCCC[C@@H]3N)nnc2C(N)=O)ccc1C(=O)N1CCC1 : reported IC50 = 10 to 100 nM

Record summary for Cc1ccc(Nc2nc(N[C@H](Cc3cccs3)C(N)=O)nnc2C(N)=O)cc1 : reported IC50 = 10 to 100 nM

Record summary for Cc1ccc(Nc2nc(N[C@@H](C(N)=O)c3ccccc3)nnc2C(N)=O)cc1 : reported IC50 = 100 to 1000 nM

Record summary for Cc1cccc(Nc2nc(N[C@H](CC(C)C)C(N)=O)nnc2C(N)=O)c1 : reported IC50 = 10 to 100 nM

Record summary for COc1cc(Nc2nc(N[C@@H]3CCCC(F)(F)[C@@H]3N)nnc2C(N)=O)ccc1Cl : reported IC50 = 100 to 1000 nM

Record summary for Cc1ccc(Nc2nc(N[C@H](CC3CC3)C(N)=O)nnc2C(N)=O)cc1 : reported IC50 = 10 to 100 nM

Record summary for CC[C@@H](Nc1nnc(C(N)=O)c(Nc2cccc(-c3ncccn3)c2)n1)C(N)=O : reported IC50 = 100 to 1000 nM

Record summary for CC[C@@H](Nc1nnc(C(N)=O)c(Nc2ccc(C(F)(F)F)c(C(F)(F)F)c2)n1)C(N)=O : reported IC50 = 10 to 100 nM

Record summary for Cn1ncc2cc(Nc3nc(N[C@@H]4CCCC[C@@H]4N)nnc3C(N)=O)ccc21 : reported IC50 = 1 to 10 nM

Record summary for Cc1ccc(Nc2nc(N[C@H](CC3CC3)C(N)=O)nnc2C(N)=O)cc1C : reported IC50 = 1 to 10 nM

Record summary for Cn1ccc2cc(Nc3nc(N[C@@H]4CCCC[C@@H]4N)nnc3C(N)=O)cnc21 : reported IC50 = 1 to 10 nM

Record summary for CC[C@@H](Nc1nnc(C(N)=O)c(Nc2ccc(N(C)C)c(F)c2)n1)C(N)=O : reported IC50 = 10 to 100 nM

Record summary for Cn1ncc2c(Nc3nc(N[C@@H]4CCOC[C@@H]4N)nnc3C(N)=O)cccc21 : reported IC50 = 10 to 100 nM

Record summary for NC(=O)c1nnc(N[C@@H]2CCNC2)nc1Nc1cccc(-c2ncccn2)c1 : reported IC50 = 10 to 100 nM

Record summary for CC(C)C[C@@H](Nc1nnc(C(N)=O)c(Nc2ccc3ncccc3c2)n1)C(N)=O : reported IC50 = 1 to 10 nM

Record summary for NC(=O)c1nnc(N[C@H](CC(F)F)C(N)=O)nc1Nc1ccc2ncccc2c1 : reported IC50 = 1 to 10 nM

Record summary for CC[C@@H](Nc1nnc(C(N)=O)c(Nc2ccc3c(c2)CCC3)n1)C(N)=O : reported IC50 = 1 to 10 nM

Record summary for CC[C@@H](Nc1nnc(C(N)=O)c(Nc2ccc(C)c(F)c2)n1)C(N)=O : reported IC50 = 10 to 100 nM

Record summary for Cc1cc(Nc2nc(N[C@@H]3CCOC[C@@H]3N)nnc2C(N)=O)ccc1Cl : reported IC50 = 1 to 10 nM

Record summary for COc1cc(Nc2nc(N[C@@H]3CCCC(F)(F)[C@@H]3N)nnc2C(N)=O)ccc1C : reported IC50 = 10 to 100 nM

Record summary for CC[C@@H](Nc1nnc(C(N)=O)c(Nc2ccc(C(F)(F)F)c(Cl)c2)n1)C(N)=O : reported IC50 = 10 to 100 nM

Record summary for Cc1ccc(Nc2nc(N[C@@H]3CCOC[C@@H]3N)nnc2C(N)=O)cc1 : reported IC50 = 10 to 100 nM

Record summary for NC(=O)c1nnc(N[C@@H]2CCCC(F)(F)[C@@H]2N)nc1Nc1ccc2c(c1)COCC2 : reported IC50 = 1 to 10 nM

Record summary for NC(=O)c1nnc(N[C@@H]2CCCC[C@@H]2N)nc1NC1CCc2ccccc2C1 (some centres unmarked) : reported IC50 = 10 to 100 nM

Record summary for NC(=O)c1nnc(N[C@@H]2CCCC[C@@H]2N)nc1Nc1ccc(F)c(F)c1 : reported IC50 = 10 to 100 nM

Record summary for NC(=O)c1nnc(N[C@@H]2CCCC[C@@H]2N)nc1Nc1ccn2ccnc2c1 : reported IC50 = 1 to 10 nM

Record summary for NC(=O)c1nnc(N[C@@H]2CCCC[C@@H]2N)nc1Nc1ccc([N+]2([O-])CCCCC2)c(F)c1 : reported IC50 = 10 to 100 nM

Record summary for NC(=O)c1nnc(N[C@@H]2CCCC(F)(F)[C@@H]2N)nc1Nc1ccccc1 : reported IC50 = 10 to 100 nM

Record summary for NC(=O)c1nnc(N[C@@H]2CCCC(F)(F)[C@@H]2N)nc1Nc1cnn2ccccc12 : reported IC50 = 10 to 100 nM

Record summary for CC[C@@H](Nc1nnc(C(N)=O)c(Nc2cccc3c2cnn3C)n1)C(N)=O : reported IC50 = 10 to 100 nM

Record summary for NC(=O)c1nnc(N[C@@H]2CCCC[C@@H]2N)nc1Nc1cc(F)cc(Cl)c1 : reported IC50 = 1 to 10 nM

src = patent US9040530B2
